Entry source: the PETadex activity labels (doi:10.1021/acscatal.9b00568)

For each record, write down the corresponding Proxy for plastic degradation.
Substrate: PET
Test: Proxy for plastic degradation [HPLC-UV]
Details: pH 9; 40 °C; 72 h

>  <protein>
unnamed (protein) MNFPRASRLMQAAVLGGLMAVSAAATAQTNPYARGPNPTAASLEASAGPFTVRSFTVSRPSGYGAGTVYYPTNAGGTVGAIAIVPGYTARQSSIKWWGPRLASHGFVVITIDTNSTLDQPDSRSSQQMAALRQVASLNGTSSSPIYGKVDTARMGVMGWSMGGGGSLISAANNPSLKAAAPQAPWHSSTNFSSVTVPTLIFACENDSIAPVNSSALPIYDSMSRNAKQFLEINGGSHSCANSGNSNQALIGKKGVAWMKRFMDNDTRYSTFACENPNSTAVSDFRTANCS

>  <Proxy for plastic degradation>
93.6 µM

$$$$

Note: attention shifts to another entry.
Determine its reported Proxy for plastic degradation: unnamed (protein) MNFPRASRLMQAAVLGGLMAVSAAATAQTNPYARGPNPTAASLEASAGPFTVRSFTVSRPSGYGAGTVYYPTNAGGTVGAIAIVPGYTARQSSIKWWGPRLASHGFVVITIDTNSTLDQPESRSSQQMAALRQVASLNGTSSSPIYGKVDTARMGVMGWSMGGGGSLISAANNPSLKAAAPQAPWDSSTNFSSVTVPTLIFACENDSIAPVNSSALPIYDSMSRNAKQFLEINGGSHSCANSGNSNQALIGKKGVAWMKRFMDNDTRYSTFACENPNSTRVSDFRTANCS
5.2 µM
